Cited source: PubChem BioAssay AID1565

target: Phosphoethanolamine/phosphocholine phosphatase (Homo sapiens); assay: PubChem AID 1565; conditions: recombinant PHOSPHO1, absorbance phosphatase assay; at 13.3 µM; hits give high values
About 3,200 (1.1%) of roughly 290,000 compounds were called active. The full list was thinned out, with actives kept by preference.
Label 1 when inhibition is at or above 10%; otherwise label -1.

{"molecule": "COCc1cc(OC(=O)N(C)C)nc(-c2ccc(C)c(Cl)c2)n1", "class_name": 1}
{"molecule": "COc1ccc(N2C(=O)/C(=C/c3ccco3)C(=O)NC2=S)cc1", "class_name": -1}
{"molecule": "CC1=CC(=Cc2sc3ccccc3[n+]2C)C=C(C)O1", "class_name": -1}

Now, please, on to the next molecule.
Prompt line: Decide: inhibition of c1ccc(CCNC2CCCCCC2)cc1 >= 10%?
Response line: 1
